B1: MNAT1 (parent)
chain: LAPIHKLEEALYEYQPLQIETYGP

Variants of: B1
assay.notes: protein stability index of a GFP-peptide fusion (GPS, HEK-293T) (PSI 1-6); higher = more stable;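 further: lentivirally expressed fusions sorted by FACS into six bins by GFP to DsRed ratio, PSI derived from sequencing read proportions per bin multiplied by bin number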
conditions.used: c terminus: a fixed tail appended
Answer n if protein stability index is under 2, and y if it is 2 or more.

[
  {
    "mutation.spec": "Y12V",
    "assigned.label": "y"
  },
  {
    "mutation.spec": "P3S",
    "assigned.label": "y"
  },
  {
    "mutation.spec": "P24C",
    "assigned.label": "y"
  },
  {
    "mutation.spec": "Y22V",
    "assigned.label": "n"
  },
  {
    "mutation.spec": "Y12S",
    "assigned.label": "n"
  },
  {
    "mutation.spec": "L11Q",
    "assigned.label": "y"
  },
  {
    "mutation.spec": "A10S",
    "assigned.label": "y"
  },
  {
    "mutation.spec": "L1S",
    "assigned.label": "y"
  },
  {
    "mutation.spec": "Q18V",
    "assigned.label": "y"
  },
  {
    "mutation.spec": "E8V",
    "assigned.label": "n"
  },
  {
    "mutation.spec": "Y12D",
    "assigned.label": "y"
  },
  {
    "mutation.spec": "Y12I",
    "assigned.label": "y"
  },
  {
    "mutation.spec": "H5I",
    "assigned.label": "n"
  },
  {
    "mutation.spec": "L17S",
    "assigned.label": "y"
  },
  {
    "mutation.spec": "E9Y",
    "assigned.label": "n"
  },
  {
    "mutation.spec": "E8W",
    "assigned.label": "y"
  },
  {
    "mutation.spec": "H5Q",
    "assigned.label": "y"
  },
  {
    "mutation.spec": "K6V",
    "assigned.label": "y"
  },
  {
    "mutation.spec": "Q18H",
    "assigned.label": "n"
  },
  {
    "mutation.spec": "L7E",
    "assigned.label": "y"
  },
  {
    "mutation.spec": "H5D",
    "assigned.label": "y"
  },
  {
    "mutation.spec": "Q15H",
    "assigned.label": "y"
  },
  {
    "mutation.spec": "I19P",
    "assigned.label": "y"
  },
  {
    "mutation.spec": "A2Q",
    "assigned.label": "y"
  },
  {
    "mutation.spec": "Q15C",
    "assigned.label": "n"
  },
  {
    "mutation.spec": "I19H",
    "assigned.label": "y"
  },
  {
    "mutation.spec": "P24A",
    "assigned.label": "y"
  },
  {
    "mutation.spec": "G23P",
    "assigned.label": "n"
  },
  {
    "mutation.spec": "L11A",
    "assigned.label": "y"
  },
  {
    "mutation.spec": "P3W",
    "assigned.label": "n"
  },
  {
    "mutation.spec": "P24N",
    "assigned.label": "y"
  },
  {
    "mutation.spec": "G23A",
    "assigned.label": "y"
  },
  {
    "mutation.spec": "E9S",
    "assigned.label": "n"
  },
  {
    "mutation.spec": "K6I",
    "assigned.label": "n"
  },
  {
    "mutation.spec": "I4Y",
    "assigned.label": "n"
  },
  {
    "mutation.spec": "P24L",
    "assigned.label": "y"
  },
  {
    "mutation.spec": "A10E",
    "assigned.label": "y"
  },
  {
    "mutation.spec": "Q18D",
    "assigned.label": "y"
  },
  {
    "mutation.spec": "I4P",
    "assigned.label": "y"
  },
  {
    "mutation.spec": "I19V",
    "assigned.label": "y"
  },
  {
    "mutation.spec": "L7I",
    "assigned.label": "y"
  },
  {
    "mutation.spec": "E13L",
    "assigned.label": "y"
  },
  {
    "mutation.spec": "E13D",
    "assigned.label": "y"
  }
]
